Test system: PC-3 prostate
experimentDescription: NCI-60 one-dose screen, 48 h
condition: 10 µM unless noted
This is part of a sample that, as a whole, favours compounds with a hit. Of some 83,000 tested, about 20% had one in any assay. The source made the active and inactive calls. Rule for the calls: active = growth percent below 10; inactive = the rest.
Write down one outcome, taken from Yes = active, No = inactive

[[record]]
compound = "Cn1c(=O)c2c(nc3n(-c4ccc(Cl)cc4Cl)c(Sc4nc(-c5ccccc5)c(C#N)c(=O)[nH]4)cn23)n(C)c1=O"
assayedsystem = "PC-3 prostate"
class = "No"

[[record]]
compound = "C=C(C)[C@@H]1CC[C@]2(C(N)=O)CC[C@]3(C)[C@H](CC[C@@H]4[C@@]5(C)C/C(=C/c6ccco6)C(=O)C(C)(C)[C@@H]5CC[C@]43C)[C@@H]12"
assayedsystem = "PC-3 prostate"
class = "No"

[[record]]
compound = "COc1cc(-c2nn(C)nc2-c2cc3ccccc3s2)cc(OC)c1OC"
assayedsystem = "PC-3 prostate"
class = "No"


Now consider the entry below.
# outcome recorded in this test, key = O=c1ccccc(-c2ccc(-c3ccco3)cc2)c1O No

====

System: UACC-257 melanoma
experimentDescription: NCI-60 one-dose screen, 48 h
condition: 10 µM unless noted
Compounds without any hit were thinned out: in the full panel of roughly 83,000, 20% have a hit. Activity calls are given as the source filed them. How the source made its calls: active means growth percent below 10; inactive means the rest.
API: response.call in active, inactive

Some solved cases for reference:
[[record]]
smilescode = "O=C1c2ccccc2C(=O)c2c1ccc1[nH]c(-c3cccs3)nc21"
class = "inactive"

[[record]]
smilescode = "Cn1cccc1-c1nc2c3c(ccc2[nH]1)C(=O)c1ccccc1C3=O"
class = "inactive"

[[record]]
smilescode = "Nc1ccc(-c2cc3c(NCc4ccccc4)ncnc3s2)cc1"
class = "inactive"

[[record]]
smilescode = "COc1ccc(CN2c3ccccc3Sc3ccccc32)cc1O"
class = "inactive"

[[record]]
smilescode = "CCc1c(Nc2ccccc2C)nc(N)[nH]c1=O"
class = "inactive"

[[record]]
smilescode = "CC1=C[C@H]2c3c(c(O)c(O)c4oc5ccccc5c(=O)c34)[C@H](c3cc(O)c(O)c4oc5ccccc5c(=O)c34)[C@H]2C(C)(C)C1"
class = "active"

[[record]]
smilescode = "C=C1C(=O)O[C@H]2[C@H]1CC/C(COC(=O)NCc1ccc(OC)c(OC)c1)=C\\CC[C@@]1(C)O[C@@H]21"
class = "inactive"

[[record]]
smilescode = "NCCNc1nc(Nc2ccc(-c3nc4ccccc4[nH]3)cc2)c2cn[nH]c2n1"
class = "inactive"

[[record]]
smilescode = "COc1cccc(-c2nc3sccn3c2-c2ccnc(NCCCNS(=O)(=O)c3c(Cl)cccc3Cl)c2)c1"
class = "inactive"

[[record]]
smilescode = "O=C(COc1ccc(/C=C2\\COc3ccccc3C2=O)cc1)Nc1nccs1"
class = "inactive"


What is the recorded call for this compound in the test? COc1ccc(-c2nc3ccc(-c4nc5ccc(N6CCN(c7ccncc7)CC6)cc5[nH]4)cc3[nH]2)cc1OC inactive

Similarly, COc1ccc(/C=C/C(=O)c2cc(O)ccc2O)cc1 ? inactive

Continue with COc1cccc(-c2nc3sccn3c2-c2ccnc(NCCNS(=O)(=O)c3ccccc3)c2)c1 inactive

====

growth for assorted compounds
Test system: HS 578T breast
experimentDescription: NCI-60 one-dose screen, 48 h (100 = growth as untreated, 0 = no growth, -100 = all killed)
condition: 10 µM unless noted
This is part of a sample that, as a whole, favours compounds with a hit. Of some 83,000 tested, about 20% had one in any assay.
Field: numeric (%). Do not append units.

The cases that follow already have their growth on record.
[[record]]
compound = "NC(=O)c1cc(I)ccc1NC(=O)/C=C/c1ccccc1Cl"
assayreadout = "growth"
recordednumber = -17.6

[[record]]
compound = "OC(c1cc2cc(Cl)c(Cl)cc2c2cc(C(F)(F)F)ccc12)C1CCCCN1 (stereo unspecified)"
assayreadout = "growth"
recordednumber = -50.4

[[record]]
compound = "Cc1cc(N2CCN(c3ccnc4cc(Cl)ccc34)CC2)nc(N2CCOCC2)n1"
assayreadout = "growth"
recordednumber = 95.7


Field: growth (HS 578T breast). Entry: C=C1c2nc3ccccc3n2C=C(c2cccc(Cl)c2)N1Cc1ccc(OC)cc1 15.5

Now this one: COc1ccc(-n2nc(C)c3c(Nc4ccc(NC(=O)Nc5cc(C(F)(F)F)ccc5F)cc4)ncnc32)cc1 28.4

Please answer likewise for CSc1nc(NCCO)c(C#N)c(-c2cccc([N+](=O)[O-])c2)n1 93.4
